protocol: thallium influx changes without GIRK channels – cell-based, HEK-293 rmGlu8, no GIRK, thallium flux, counter-screen for GIRK activator project, confirmation (AID 623868);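 further: extra codes mark interference with 3 for fluorescent and 4 for baseline rise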
conditions: thallium flux fluorescence, at 10 µM, actives lie on both sides, codes: 1 enhancer, -1 blocker, 0 none, thallium stimulus containing EC20 glutamate
In all, about 2,100 compounds went through this assay and about 760 (36%) were called active.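 How the source made its calls: active means thallium-flux fluorescence traces judged by eye to show enhanced or reduced glutamate response, manual score 1 or -1, so both directions (some results past the limit were not filed as active); inactive means the rest, including fluorescent or raised-baseline compounds.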 A selection follows.
Possible outcomes: active, inactive

compound="CCOc1ccc(-n2c(Cc3cc(=O)[nH]c(=O)[nH]3)nnc2SC(C)C(=O)OC)cc1 (stereo not drawn)" labelvalue=inactive
compound=COC(=O)c1ccc(CSc2nc3c(c(=O)n2-c2ccc(F)cc2)SCC3)o1 labelvalue=active
compound="C/C(CC(O)c1ccc2ccccc2n1)=N/O (stereo not drawn)" labelvalue=inactive
compound=CCCCN(C)S(=O)(=O)c1ccc(C(=O)Nc2nnc(-c3cccs3)o2)cc1 labelvalue=active
compound="CCCCn1c(=N)n(CC(O)COc2cccc(C)c2)c2ccccc21 (stereo not drawn)" labelvalue=inactive
compound=Cc1occc1C(=O)Nc1cccc(C(F)(F)F)c1 labelvalue=inactive
compound=Cn1c(=O)cc(OCCCC(=O)NCc2ccc3c(c2)OCO3)c2ccccc21 labelvalue=inactive
compound=O=C(NNC(=S)Nc1cccc(C(F)(F)F)c1)c1cccc(Cl)c1 labelvalue=inactive
compound="COCCn1nnnc1C(c1ccccc1)N1CCN(c2ccccc2)CC1 (stereo not drawn)" labelvalue=inactive
compound=O=C(Nc1nnc(-c2cccs2)o1)c1cccc(C(F)(F)F)c1 labelvalue=active
compound=Cc1ccc(C(=O)NC(=S)Nc2ccccc2C(F)(F)F)cc1C labelvalue=active
compound=CCN(CC)S(=O)(=O)c1cccc(-c2n[nH]c(=S)n2/N=C/c2ccc(C(=O)OC)cc2)c1 labelvalue=active
compound=Cc1ncoc1C(=O)Nc1ccc(Oc2ccccc2)cc1 labelvalue=inactive
compound=O=C(Nc1cccs1)Nc1c(F)c(F)c(F)c(F)c1F labelvalue=inactive
compound=Oc1c(N=Nc2ccccn2)ccc2ccccc12 labelvalue=active
compound=O=C(Nc1nnc(-c2cccs2)o1)c1cccc(Oc2ccccc2)c1 labelvalue=active
compound="CCOc1ccc(-n2c(SC(C)C(=O)OC)nc3c(c2=O)SCC3)cc1 (stereo not drawn)" labelvalue=active
compound=O=C(Nc1ccc(CN2CCOCC2)cc1)c1cc2ccccn2n1 labelvalue=inactive
compound=Cc1nc(C)c(C(=O)Nc2ccc(Oc3ccccc3)cc2)o1 labelvalue=inactive
compound=Cc1cc(C)c(NC(=O)c2ccc(S(=O)(=O)N(C)C)cc2)c(C)n1 labelvalue=inactive
compound=Brc1ccc(-c2nnc3c4ccccc4nc(N4CCOCC4)n23)cc1 labelvalue=inactive
compound=Oc1ccc2ccccc2c1N=Nc1ccccn1 labelvalue=active
compound=CCCCn1c(O)c(N=Nc2ccccn2)c2ccccc21 labelvalue=active

----------
protocol: thallium influx changes without GIRK channels – cell-based, HEK-293 rmGlu8, no GIRK, thallium flux, counter-screen for GIRK activator project, confirmation (AID 623868);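 further: extra codes mark interference with 3 for fluorescent and 4 for baseline rise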
conditions: thallium flux fluorescence, at 10 µM, actives lie on both sides, codes: 1 enhancer, -1 blocker, 0 none, thallium stimulus containing EC20 glutamate
Among all 2,100 compounds or so, about 760 (36%) were called active. These entries were drawn from the full list.
// values below are reported manual score
reportedProperty: manual score

molecule=CCCCn1c(-c2ccc(Cl)cc2)nc2c(=O)n(C)c(=O)[nH]c21 reportedproperty="manual score" experimentalresult=0
molecule=COC(=O)Nc1nc(C)c(C(=O)N(C)C)s1 reportedproperty="manual score" experimentalresult=0
molecule=CCN(CC)CCCn1c(=S)[nH]c2cc(Cl)ccc2c1=O reportedproperty="manual score" experimentalresult=0
molecule="CC(=O)C1=C(C)NC(SCc2ccc(C#N)cc2)=C(C#N)C1c1ccco1 (stereo unspecified)" reportedproperty="manual score" experimentalresult=0
molecule="CCN1CCCC1CNC(=O)C1CCN(Cc2nc(-c3cccc(Br)c3)oc2C)CC1 (stereo unspecified)" reportedproperty="manual score" experimentalresult=0
molecule=O=S(=O)(c1ccc(Cl)c(F)c1)N1CCC(c2nc(-c3ccncc3)no2)CC1 reportedproperty="manual score" experimentalresult=0
molecule=Cc1cc(C)n(CC(=O)O)n1 reportedproperty="manual score" experimentalresult=0
molecule=CCCn1c(C)cc(/C=C(\C#N)C(=O)OCC(=O)Nc2cccc(OC)c2)c1C reportedproperty="manual score" experimentalresult=0
molecule=CCOc1ccccc1Nc1nnc(Cc2ccccc2Cl)c(=O)[nH]1 reportedproperty="manual score" experimentalresult=0
molecule=CCc1nc2cc(Cl)c(Cl)cc2[nH]1 reportedproperty="manual score" experimentalresult=0
molecule="CC1=CC(=O)OC1Cc1ccncc1 (stereo unspecified)" reportedproperty="manual score" experimentalresult=0
molecule="COC(=O)C1=NN(c2ccccc2)C2C(=O)N(c3ccccc3OC)C(=O)C12 (stereo unspecified)" reportedproperty="manual score" experimentalresult=0
molecule=COc1ccc(Nc2nnc(Cc3ccccc3)c(=O)[nH]2)c(OC)c1 reportedproperty="manual score" experimentalresult=0
molecule=CCOC(=O)c1ccc(NC(=S)NC(=O)COc2ccccc2)cc1 reportedproperty="manual score" experimentalresult=0
molecule="CSCSC1=C(C#N)C(c2ccccc2Cl)C(C(C)=O)=C(C)N1 (stereo unspecified)" reportedproperty="manual score" experimentalresult=-1
molecule=O=C(CC(=O)c1ccccc1O)c1cccc(F)c1 reportedproperty="manual score" experimentalresult=1
molecule=O=C(Nc1cccc(S(=O)(=O)c2cccc(NC(=O)C3CC3)c2)c1)C1CC1 reportedproperty="manual score" experimentalresult=0.5
molecule=COC(=O)c1sc(NC(=S)NC(=O)c2ccccc2Cl)nc1C reportedproperty="manual score" experimentalresult=1
molecule="N=c1c2c(ncn1CCN1CCOCC1)Oc1ccc3ccccc3c1C2c1ccccc1 (stereo unspecified)" reportedproperty="manual score" experimentalresult=0
molecule=CCCCn1c(=O)nc2n(-c3ccccc3)c3ccccc3cc-2c1=O reportedproperty="manual score" experimentalresult=0
molecule=O=C(c1cc2nc(-c3ccccc3)cc(-c3ccccc3)n2n1)N1CCN(C(=O)c2ccco2)CC1 reportedproperty="manual score" experimentalresult=-0.5
molecule=Cn1c(NC(=O)Cc2ccc(F)cc2)cc(=O)n(C)c1=O reportedproperty="manual score" experimentalresult=0
molecule=O=C(Nc1nnc(-c2ccc(Cl)cc2)o1)c1cccc(N2C(=O)CCC2=O)c1 reportedproperty="manual score" experimentalresult=1
molecule=Cc1cccc(C(=O)CC(=O)c2cc(Cl)ccc2O)c1 reportedproperty="manual score" experimentalresult=0.5
molecule=CCOc1ccc(-n2c(SCc3nc(-c4cccs4)no3)nnc2-c2ccncc2)cc1 reportedproperty="manual score" experimentalresult=0
molecule=Cc1c(C(=O)O)c(=S)sn1CCOc1ccccc1 reportedproperty="manual score" experimentalresult=-1
molecule=CC(=O)c1cccc(NC(=O)CCOc2ccccc2)c1 reportedproperty="manual score" experimentalresult=0
molecule=CCCCOc1ccc(C(=O)NNC(=S)NC(=O)CC)cc1 reportedproperty="manual score" experimentalresult=1
molecule=Cc1cccn2c(=O)c(/C=N/O)c(N3CCCC3)nc12 reportedproperty="manual score" experimentalresult=0
molecule="CCOC(=O)C1=C(c2ccccc2)NC(SC)=C(C#N)C1c1ccco1 (stereo unspecified)" reportedproperty="manual score" experimentalresult=0
molecule="CN(C(=O)CSC1=Nc2ccccc2C2=NC(c3ccccc3)C(=O)N12)C1CCCCC1 (stereo unspecified)" reportedproperty="manual score" experimentalresult=-1
molecule=COc1ccc(C(=O)Nc2ccccc2)cc1S(=O)(=O)Nc1cc(C)on1 reportedproperty="manual score" experimentalresult=0
molecule=CCCOc1ccc(C(=O)NNC(=S)NC(=O)CC)cc1 reportedproperty="manual score" experimentalresult=1
molecule=CNC(=S)N/N=C(\C)c1ccc(C)c(C)c1 reportedproperty="manual score" experimentalresult=0.5
molecule=CCCn1c(SCc2nc3sc(C)c(C)c3c(=O)[nH]2)nc2ccccc2c1=O reportedproperty="manual score" experimentalresult=1
molecule="CC(c1ccco1)N(C(=O)c1ccccc1NS(=O)(=O)c1cc([N+](=O)[O-])ccc1Cl)c1ccccn1 (stereo unspecified)" reportedproperty="manual score" experimentalresult=1
molecule="CC1=NN(c2ccccc2)C(=O)C1C(=O)c1ccc(Cl)cc1 (stereo unspecified)" reportedproperty="manual score" experimentalresult=1
molecule=N#Cc1ccsc1NC(=O)CN1CCN(c2ccc(O)cc2)CC1 reportedproperty="manual score" experimentalresult=0
molecule=CC(C)Oc1cccc(C(=O)NC(=S)Nc2ccccc2)c1 reportedproperty="manual score" experimentalresult=1
molecule=CCOc1cccc(C(=O)NC(=S)Nc2ccccc2)c1 reportedproperty="manual score" experimentalresult=0
molecule=CNC(=S)SCCOc1ccc(C)cc1 reportedproperty="manual score" experimentalresult=3
molecule=COC(=O)c1cccc(NC(=S)Nc2cccc(Cl)c2Cl)c1 reportedproperty="manual score" experimentalresult=1
molecule=CCCN1CCC(NC(=O)Nc2ccc(F)cc2F)CC1 reportedproperty="manual score" experimentalresult=0
molecule=CC(=O)c1ccc(OC(=O)N(c2ccccc2)c2ccccc2)cc1 reportedproperty="manual score" experimentalresult=0
molecule=COc1ccccc1NC(=O)c1cc(C(=O)Nc2ccccc2OC)cc(N2C(=O)CCC2=O)c1 reportedproperty="manual score" experimentalresult=0
molecule=O=C1C(Cl)=C(N2CCOCC2)C(=O)N1c1cccc(Cl)c1 reportedproperty="manual score" experimentalresult=0
